All figures here come from patent US20250333501A1.

Some binders, each annotated with its measured EC50.
Target: T1, human CLDN6 fused to GFP, expressed on engineered HEK293T cells (HEK293T-CLDN6-mGFP) (human, UniProt P56747 1-220)
T1 construct: It calls residues 1-21 a signal peptide; also called Claudin-6; HEK293T-CLDN6-mGFP Artificial CLDN6+; not shown: mGFP tag
T1 sequence: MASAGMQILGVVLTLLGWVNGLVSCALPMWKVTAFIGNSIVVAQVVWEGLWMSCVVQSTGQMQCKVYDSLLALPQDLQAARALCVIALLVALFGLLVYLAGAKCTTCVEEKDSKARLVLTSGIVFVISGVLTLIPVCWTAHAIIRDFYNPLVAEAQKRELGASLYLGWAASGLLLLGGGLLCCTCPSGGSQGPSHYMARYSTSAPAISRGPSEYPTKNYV
Assay: FACS, AF647-labelled mAb, HEK293T-CLDN6-mGFP cells
Reply with just the number (in nM).

{"binder": "AB2 (antibody, V domains shown, Labelled with Alexa Fluor 647 NHS ester for FACS) VH: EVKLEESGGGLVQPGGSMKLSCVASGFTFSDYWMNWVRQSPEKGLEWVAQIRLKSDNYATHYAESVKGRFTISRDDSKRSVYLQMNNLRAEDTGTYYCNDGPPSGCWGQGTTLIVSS VL: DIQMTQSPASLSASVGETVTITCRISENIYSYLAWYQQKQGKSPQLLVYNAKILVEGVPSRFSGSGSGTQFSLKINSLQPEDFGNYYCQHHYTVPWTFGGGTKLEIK", "EC50 / nM": 182}

Let us examine a further case.
Query string: Given the binder AB4 (antibody, V domains shown, Labelled with Alexa Fluor 647 for FACS and with Texas Red-X in the internalization assay) VH: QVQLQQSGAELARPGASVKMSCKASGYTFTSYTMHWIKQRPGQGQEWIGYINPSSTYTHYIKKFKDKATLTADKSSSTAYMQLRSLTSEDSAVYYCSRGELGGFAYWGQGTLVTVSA VL: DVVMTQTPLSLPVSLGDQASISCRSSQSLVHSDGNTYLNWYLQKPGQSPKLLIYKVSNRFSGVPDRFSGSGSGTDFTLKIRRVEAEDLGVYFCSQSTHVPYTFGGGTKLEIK , write its reported EC50.
Result string: 17
